subjectOfTest: human RORgammaT-Ligand Binding Domain (LBD) (Homo sapiens (Human))
procedureText: RORγ-Ligand Binding Domain TR-FRET Assay (SRC1_2 co-activator peptide)
Format: biochemical
conditionDescription: HIS-tagged RORγ-LBD 3 nM, biotinylated SRC1 LXXLL peptide 100 nM, incubated overnight at 4° C.; read-out: Fret IC50
measure: pIC50
Worth noting: pIC50 values are minus log10 of concentrations stated in mol/L.

Study these solved cases before continuing.
{"molecule": "O=C(O)C1CC=C(c2nn(C(=O)c3c(Cl)cccc3C3CC3)c3c2CCC(O)C3)CC1 (single isomer, unassigned) [Example 10A]", "pIC50": 7.24}
{"molecule": "O=C(O)C1CC=C(c2nn(C(=O)c3c(C4CC4)ccc(F)c3Cl)c3c2CCC(CO)C3)CC1 (single isomer, unassigned)", "pIC50": 7.85}
{"molecule": "O=C(O)C1CC=C(c2nn(C(=O)c3c(Cl)cccc3C3CC3)c3c2OCCC3)CC1 (stereo not drawn) [Example 15A]", "pIC50": 7.25}

Exercise: Bench note: what pIC50 did O=C(O)C1CC=C(c2nn(C(=O)c3c(Cl)cccc3C3CC3)c3c2CCC(CO)C3)CC1 (single isomer, unassigned) [Example 7A] show?
Key: 8.05

Exercise: Bench note: what pIC50 did O=C(O)C1CC=C(c2nn(C(=O)c3c(Cl)cccc3C3(C(F)(F)F)CC3)c3c2CCC(CO)C3)CC1 (single isomer, unassigned) show?
Key: 8.30

Exercise: Bench note: what pIC50 did NCC1CCc2c(C3=CCC(C(=O)O)CC3)nn(C(=O)c3c(Cl)cccc3C3CC3)c2C1 (single isomer, unassigned) [Example 14A] show?
Key: 5.92

Exercise: Bench note: what pIC50 did O=C(O)C1CC=C(c2nn(C(=O)c3c(Cl)cccc3C3COC3)c3c2CCC(CO)C3)CC1 (single isomer, unassigned) show?
Key: 7.82

Exercise: Bench note: what pIC50 did N#CC1(c2cccc(Cl)c2C(=O)n2nc(C3=CCC(C(=O)O)CC3)c3c2CCC3)CCC1 (stereo not drawn) show?
Key: 5.93

Exercise: Bench note: what pIC50 did O=C(O)C1CC=C(c2nn(C(=O)c3c(Cl)cccc3C3CC3)c3c2CCC(O)C3)CC1 (single isomer, unassigned) [Example 10B] show?
Key: 7.49

====

subjectOfTest: human RORgammaT-Ligand Binding Domain (LBD) (Homo sapiens (Human), UniProt P51449)
Sequence (P51449 269-508): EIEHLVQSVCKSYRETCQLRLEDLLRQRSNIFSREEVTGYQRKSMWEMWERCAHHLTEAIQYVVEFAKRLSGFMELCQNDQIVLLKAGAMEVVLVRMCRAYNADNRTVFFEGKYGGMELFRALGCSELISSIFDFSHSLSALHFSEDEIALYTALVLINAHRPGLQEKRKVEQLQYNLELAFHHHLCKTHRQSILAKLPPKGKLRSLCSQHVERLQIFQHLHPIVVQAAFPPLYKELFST
procedureText: RORγ-Ligand Binding Domain TR-FRET Assay (SRC1_2 co-activator peptide)
Assay type: biochemical
conditionDescription: Fret IC50 (nM), HIS-tagged RORγ-LBD 3 nM, biotinylated SRC1 LXXLL peptide 100 nM, incubated overnight at 4° C.
measure: IC50 (nM)
Numeric only. Scale: nM

Exercise: Bench note: what IC50 did N#CC1(c2cccc(Cl)c2C(=O)n2nc(C3=CCC(C(=O)O)CC3)c3c2COCC3)CCC1 (single isomer, unassigned) [Example 2C-B] show?
Key: 1050

Exercise: Bench note: what IC50 did N#CC1(c2cccc(Cl)c2C(=O)n2nc(C3=CCC(C(=O)O)CC3)c3c2COCC3)CCC1 (single isomer, unassigned) [Example 2C-A] show?
Key: 676

====

subjectOfTest: human RORgammaT-Ligand Binding Domain (LBD) (Homo sapiens (Human))
procedureText: RORγ-Ligand Binding Domain TR-FRET Assay (SRC1_2 co-activator peptide)
Type: biochemical
conditionDescription: HIS-tagged RORγ-LBD 3 nM, biotinylated SRC1 LXXLL peptide 100 nM, incubated overnight at 4° C.; read-out: Fret IC50
measure: IC50 (nM)
Numeric only. Scale: nM

Study these solved cases before continuing.
{"compound": "O=C(O)C1CCN(c2nn(C(=O)c3c(Cl)cccc3C3CC3)c3c2CCCC3)CC1 [Example 16A]", "subjectOfTest": "human RORgammaT-Ligand Binding Domain (LBD) (Homo sapiens (Human))", "obsValue": 149}
{"compound": "CC1(c2cccc(Cl)c2C(=O)n2nc(C3=CCC(C(=O)O)CC3)c3c2COCC3)CC1 (stereo not drawn)", "subjectOfTest": "human RORgammaT-Ligand Binding Domain (LBD) (Homo sapiens (Human))", "obsValue": 38}

Turning now to a further compound:
Exercise: Bench note: what IC50 did O=C(O)C1CC=C(c2nn(C(=O)c3c(Cl)cccc3C3CC3)c3c2CCC(CO)C3)CC1 (single isomer, unassigned) [Example 6A] show?
Key: 173
